Attribution: patent US7528149B2

system: HeLa cells; experiment: Cytotoxicity in mock-infected HeLa cells (tetrazolium-based colorimetric assay); assay type: cell-based; settings: human, 7 days
metric: CC50
Answer shape: numeric part, then the unit.

Please look at this compound and report its CC50: CCOC(c1cccc(C)n1)n1c(NC2CCN(CC(N)C(C)C)CC2)nc2ccccc21 (stereo not shown) [Compound 58]
79.4 µM

* * *

system: Respiratory Syncytial Virus; test: In vitro screening for activity against Respiratory Syncytial Virus (tetrazolium-based colorimetric assay, protection against cytopathology in HeLa cells); type: cell-based; details: RSV approx. 100 TCID50, HeLa cells, MTT read seven days after infection; read-out: IC50 (antiviral activity)
metric: pIC50
One number for each entry, as −log10 of the molar value.

Supply reported pIC50 belonging to this molecule: CCOC(c1cccc(C)n1)n1c(NC2CCN(CC(N)C(C)C)CC2)nc2ccccc21 (stereo not shown)
7.30
